experiment: Determination of oral bioavailability (plasma pharmacokinetics i.v. and p.o.); type: in vivo, Male CD-1 mice; details: male, CD-1, mouse; mice, 10 mg/Kg PO, plasma
Counter-ions that a name gives are not always drawn.
measurement.type: AUC(0-inf) (ng·h/mL)
Just the number please, in ng·h/mL, no unit attached.

## Input Fill blank: measured AUC(0-inf) of the molecule CN(C)CCNC(=O)c1ccc(-c2ccc(-c3ccc(Cl)cc3)n2-c2ccccc2C(F)(F)F)cc1 [Example 33, Hydrochloride] is ____.
## Output 9800

###

system: glioblastoma cell line 906868; experiment: Glioblastoma cancer cell viability, cell line 906868; format: cell-based
Where a name gives a salt, the structure may show the parent alone.
measurement.type: IC50 (nM)
Just the number please, in nM, no unit attached.

## Input Fill blank: measured IC50 of the compound CN(C)CCNC(=O)c1ccc(-c2ccc(-c3ccc(Cl)cc3)n2-c2ccccc2C(F)(F)F)cc1 [Example 33, Hydrochloride] is ____.
## Output 252
